Origin of the recorded values: patent US20230235052A1

Each entry below lists one item and its recorded koff value.
Molecular target: T1, human CD19 antigen (human, UniProt P15391 20-291, limits assumed)
T1 sequence (looked up): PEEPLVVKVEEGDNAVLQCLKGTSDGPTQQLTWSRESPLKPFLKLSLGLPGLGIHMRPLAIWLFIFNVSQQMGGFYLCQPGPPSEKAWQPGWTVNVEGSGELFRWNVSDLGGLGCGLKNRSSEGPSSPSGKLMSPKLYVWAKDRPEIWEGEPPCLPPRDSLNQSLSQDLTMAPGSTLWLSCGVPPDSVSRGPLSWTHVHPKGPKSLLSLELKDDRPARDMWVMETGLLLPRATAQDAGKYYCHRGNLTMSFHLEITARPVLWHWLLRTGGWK
Experiment: SPR (Biacore), antibody captured via Fc
The response must be a number in s⁻¹ with no trailing unit.

Illustrative cases are given below, each with its answer.
humanized CD19 antibody VH10 + VL5 (antibody, V domains shown) VH: QVKLQESGPGLVKPSETLSLTCTVSGVSLPDYGVSWIRQPPGKGLEWLGVIWGSETTYYNSALKSRLTISKDTSKSQVFLKLSSVTAADTAVYYCAKHYYYGGSYAMDYWGQGTLVTVSS VL: DIQMTQSPSSLSASVGDRVTISCRASQDISKYLNWYQQKPGKAPKLLIYHTSRLHSGVPSRFSGSGSGTDYTFTISSLQPEDIATYFCQQGNTLPYTFGGGTKLEIK : 0.000182
humanized CD19 antibody VH8 + VL5 (antibody, V domains shown) VH: QVKLQESGPGLVKPSETLSLTCTVSGVSLPDYGVSWIRQPPGKGLEWIGVIWGSETTYYNSALKSRVTISKDTSKSQVFLKLSSVTAADTAVYYCAKHYYYGGSYAMDYWGQGTLVTVSS VL: DIQMTQSPSSLSASVGDRVTISCRASQDISKYLNWYQQKPGKAPKLLIYHTSRLHSGVPSRFSGSGSGTDYTFTISSLQPEDIATYFCQQGNTLPYTFGGGTKLEIK : 0.000602

Attention now shifts to the item below.
Which koff reading was recorded for the binder humanized CD19 antibody VH7 + VL6 (antibody, V domains shown) VH: QVKLQESGPGLVKPSETLSLTCTVSGVSLPDYGVSWIRQPPGKGLEWLGVIWGSETTYYNSALKSRLTISKDTSKNQFSLKLSSVTAADTAVYYCAKHYYYGGSYAMDYWGQGTLVTVSS VL: DIQMTQSPSSLSASVGDRVTITCRASQDISKYLNWYQQKPGGAVKLLIYHTSRLHSGVPSRFSGSGSGTDYTFTISSLQPEDIATYFCQQGNTLPYTFGGGTKLEIK ? 0.000592
